All values here come from patent US9637473B2.

Test system: P. Falciparum NF54
Assay: Plasmodium falciparum in vitro assay ([3H]-hypoxanthine incorporation)
Format: cell-based
Conditions: Plasmodium falciparum, Erythrocyte, P. Falciparum NF54, erythrocytic stages in human red blood cells, 50% human serum
Structures can show the parent of a compound that is named as a salt.
property.measured: pIC50
Interpret pIC50 as the negative base-10 log of the concentration measured in mol/L.

>>> experimental_value("CC(C)N1CCC(N(Cc2cccc(N(C)c3ccncc3)c2)C(=O)/C=C/c2ccc(C(F)(F)F)cc2)CC1 [Example 142, formate]")
7.57
>>> experimental_value("CN(c1ccncc1)c1ccc(CN(C(=O)/C=C/c2ccc(C(F)(F)F)cc2)C2CCN(Cc3ccnn3C)CC2)cc1 [Example 17]")
6.74
>>> experimental_value("Cc1ccc(Nc2ccc(CN(C(=O)/C=C/c3ccc(C(F)(F)F)cc3)C3CCN(C4CCCC4)CC3)cc2)nc1 [Example 98]")
6.43
>>> experimental_value("CN1CCC(N2CCCCC(N(Cc3ccc(N(C)c4ccncc4)cc3)C(=O)/C=C/c3ccc(C(F)(F)F)cc3)C2)CC1 (racemic) [Example 70]")
7.70
>>> experimental_value("CN(c1ccncc1)c1ccc(CN(C(=O)/C=C/c2ccc(C(F)(F)F)cc2)C2CCCCN(C3CCCC3)C2)cc1 (racemic) [Example 71]")
6.78

Find the recorded pIC50 belonging to Cc1c(/C=C/C(=O)N(Cc2ccc(N(C)c3ccncc3)cc2)C2CCN(Cc3ccccc3)CC2)cnn1C [Example 164] and report it.
6.43

Suppose we examine the molecule Cc1ccccc1/C=C/C(=O)N(Cc1ccc(N(C)c2ccncc2)cc1)C1CCN(Cc2ccccc2)CC1 [Example 160] ; what pIC50 value has been reported?
6.78

Any idea what its pIC50 is? The molecule is CN(c1ccncc1)c1ccc(CN(C(=O)/C=C/c2ccc(Cl)cc2)C2CCN(Cc3ccccc3)CC2)cc1 [Example 152]
7.12

Need pIC50 of Cc1cc(Nc2ccc(CN(C(=O)/C=C/c3ccc(C(F)(F)F)cc3)C3CCN(CC4CC4)CC3)cc2)ccn1 [Example 31] , thanks.
7.41

Using the record for Cc1ccc(/C=C/C(=O)N(Cc2ccc(N(C)c3ccncc3)cc2)C2CCN(Cc3ccccc3)CC2)cc1 [Example 158] , report its pIC50.
6.72

Given the entry Cc1cc(Nc2ccc(CN(C(=O)/C=C/c3ccc(C(F)(F)F)cc3)C3CCN(Cc4ccccc4)CC3)cc2)ccn1 [Example 37] , report its measured pIC50.
7.29

pIC50 for CCCOc1ccc(/C=C/C(=O)N(Cc2ccc(N(C)c3ccncc3)cc2)C2CCN(Cc3ccccc3)CC2)cc1 [Example 148] ?
7.21

Entry Cc1cc(Nc2ccc(CN(C(=O)/C=C/c3ccc(C(F)(F)F)cc3)C3CCN(Cc4ncccn4)CC3)cc2)ccn1 [Example 47] : reported pIC50 = ?
6.46

Give its pIC50 value. Item: CN(c1ccncc1)c1ccc(CN(CC2CCN(C3CCCC3)CC2)C(=O)/C=C/c2ccc(C(F)(F)F)cc2)cc1 [Example 188]
7.40

Item under review: Cc1cc(Nc2ccc(CN(C(=O)/C=C/c3ccc(C(F)(F)F)cc3)C3CCN(Cc4nccn4C)CC3)cc2)ccn1 [Example 41] . Reported pIC50?
6.68

Bench note: what pIC50 did CN(c1ccncc1)c1ccc(CN(C(=O)/C=C/c2ccc(C(F)(F)F)cc2)C2CC3(C2)CN(C2CCCC2)C3)cc1 [Example 74] show?
7.39

Consider the molecule shown here: CN(c1ccncc1)c1ccc(CN(C(=O)/C=C/c2ccc(C(F)(F)F)cc2)C2CCN(C3CCCC3)CC2)cn1 [Example 104] What is its recorded pIC50?
7.22

Which pIC50 value belongs to COc1ccc2nccc(Nc3ccc(CN(C(=O)/C=C/c4ccc(C(F)(F)F)cc4)C4CCN(C5CCCC5)CC4)cc3)c2c1 [Example 88] ?
7.68

Form field: reported pIC50 of Cc1cc(Oc2ccc(CN(C(=O)/C=C/c3ccc(C(F)(F)F)cc3)C3CCN(C4CCCC4)CC3)cc2)cc(C)n1 [Example 208]
7.09

Consider the molecule Cc1cc(N(C)c2cccc(CN(C(=O)/C=C/c3ccc(C(F)(F)F)cc3)C3CCN(C(C)C)CC3)n2)ccn1 [Example 128, formate] and give its measured pIC50.
6.52

# query: pIC50 of entry CC(C)CCN1CC2(CC(N(Cc3ccc(N(C)c4ccncc4)cc3)C(=O)/C=C/c3ccc(C(F)(F)F)cc3)C2)C1 [Example 75]
7.52
